Hello, the source for this data is patent US9377466B2, in case you need it.

# [θ]222 at high concentration listing for each entry below
Assay: CD spectroscopy, mean residue ellipticity of the sixteen scaffold polypeptides
Format: physicochemical
Details: high concentration 30-230 μM as listed per peptide; error ±1000
Protocol: The mean residue ellipticities at 222 nm, [θ]222, □ of the sixteen scaffold polypeptides were recorded at two concentrations, approximately 30 μM and approximately 1 μM, to characterize the state of aggregation, cf. The degree of helix formation is related to the monomer-dimer equilibrium since monomers are unordered with low helical content whereas dimers are highly helical. […]
Answer in deg cm^2 dmol^−1, number only, no unit symbol.

Would you please look over these solved cases?
>>> readout_value("2-C15L8: SEQ ID NO: 2 NEADLEAKIRHLAEKLAARGPVDAAQLAEQLARAFEAFARAG")
"−24900"
>>> readout_value("3-C10L17: SEQ ID NO: 7 NAADLEARIKHLAERLKARGPVDAAQLAEQLARAFEAFARAG")
"−22400"
>>> readout_value("3-C25L22: SEQ ID NO: 11 NAADLEAAIRHLAERLAARGPKDAKQLAEQLARAFEAFARAG")
"−26400"
>>> readout_value("1-C25L22: SEQ ID NO: 9 NEADLEAAIRHLAEALEARGPKDAKQLAEQLARAFEAFERAG")
"−24800"
>>> readout_value("2-C37L34: SEQ ID NO: 14 NAADLEAAIRHLAERLAARGPVDAAQLAEQLAAKFEKFARAG")
"−23900"

Return value of [θ]222 at high concentration for input 4-C37L34: SEQ ID NO: 16 NAADLEARIRHLRERLAARGPRDAAQLAEQLARKFEKFARAG , no commentary.
−19600

Output measured [θ]222 at high concentration for this item: 4-C10L17: SEQ ID NO: 8 NAADLEARIKHLRERLKARGPRDAAQLAEQLARAFERFARAG
−19500

====

Experiment: CD spectroscopy, mean residue ellipticity of the sixteen scaffold polypeptides
Type: physicochemical
Conditions: low concentration 1-5 μM as listed per peptide; error ±1000
Reported Property: [θ]222 at low concentration (deg cm^2 dmol^−1)
Answer in deg cm^2 dmol^−1, number only, no unit symbol.

Output [θ]222 at low concentration of 1-C25L22: SEQ ID NO: 9 NEADLEAAIRHLAEALEARGPKDAKQLAEQLARAFEAFERAG
−18000

Specify [θ]222 at low concentration for 3-C15L8: SEQ ID NO: 3 NAADLEAKIRHLAEKLAARGPVDAAQLAEQLARRFEAFARAG and stop.
−19700

Give me measured [θ]222 at low concentration, please, for this substance: 4-C15L8: SEQ ID NO: 4 NAADLEAKIRHLREKLAARGPRDAAQLAEQLARRFERFARAG
−15300

Return [θ]222 at low concentration for the following substance: 2-C10L17: SEQ ID NO: 6 NAADLEAAIKHLAEALKARGPVDAAQLAEQLARAFEAFARAG
−20400

// fetch [θ]222 at low concentration given entry 4-C37L34: SEQ ID NO: 16 NAADLEARIRHLRERLAARGPRDAAQLAEQLARKFEKFARAG
−14900
